Reference source: patent US20190085323A1

# TARGET OR SYSTEM: HER2 on the surface of N87 gastric cancer cells (human, UniProt P04626 23-1255)
# EXPERIMENT SUMMARY: cell-based or functional assay
So I've got a bunch of binders here, and I need their % cell viability (AL1) values.
# value in %; strip the unit string

The binder listed as 35CPT-9 source scFv (scFv) DIQMTQSPSSLSASVGGRVTITCKSNQNLLDSYGRTYLYWYQQKPGKAPKLLISGTSGLYSGVPSRFSGSGSGTDFTLTISSLQPEDFATYYCFQGYDYPFTFGQGTKVEIKREVQLVESGGGLVQPGGSLRLSCKASGYTFGDYGMHWVRQAPGKGLEWVAHIAPNDGITHYADSVKGRFTISADTSKNTAYLQMNSLRAEDTAVYYCARGYGWYDHVMDYWGQGTLVTVSSASAAA shows % cell viability (AL1) equal to 69.8

The binder listed as 35WYK-16 source scFv (scFv) DIQMTQSPSSLSASVGDRVTITCKSNQNLLLSNGRTFLYWYQQKPGKAPKLLIYDVSDLYSGVPSRFSGSGSGTDFTLTISSLQPEDFATYYCFQGNNFPYTFGQGTKVEIKREVQLVESGGGLVQPGGSLRLSCKASGYTFGTSWMHWVRQAPGKGLEWVAGITPYYGLTFYADSVKGRFTISADTSKNTAYLQMNSLRAEDTAVYYCARGNLDYWGQGTLVTVSSASAAA shows % cell viability (AL1) equal to 72.2

The binder listed as 30CHS-13 source scFv (scFv) DIQMTQSPSSLSASVGDRVTITCKSNQNLLDSGNQRTYLNWYQQKPGKAPKLLIYHTSRLYSGVPSRFSGSGSGTDFTLTISSLQPEDFATYYCSQTFRHPGTFGQGTKVEIKREVQLVESGGGLVQPGGSLRLSCKASGYTFGHYSMFWVRQAPGKGLEWVASIYPHYGHTYYADSVKGRFTISADTSKNTAYLQMNSLRAEDTAVYYCARGHWLDYWGQGTLVTVSSASAAA shows % cell viability (AL1) equal to 75.8
